B1: TRAF3IP2 (parent)
chain: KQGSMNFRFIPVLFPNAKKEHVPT

# Variants of: B1
# Assay Info: protein stability index of a GFP-peptide fusion (GPS, HEK-293T) (PSI 1-6); higher = more stable;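 note: lentivirally expressed fusions sorted by FACS into six bins by GFP to DsRed ratio, PSI derived from sequencing read proportions per bin multiplied by bin number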
# Condition Info: c terminus: a fixed tail appended
Quantity: protein stability index

[[record]]
variant_code = "F7P"
assay_value = 3.31

[[record]]
variant_code = "G3S"
assay_value = 1.82

[[record]]
variant_code = "K1A"
assay_value = 2.02

[[record]]
variant_code = "N6V"
assay_value = 1.93

[[record]]
variant_code = "N16L"
assay_value = 1.66

[[record]]
variant_code = "A17V"
assay_value = 1.61

[[record]]
variant_code = "V12K"
assay_value = 2.39

[[record]]
variant_code = "K19N"
assay_value = 1.7

[[record]]
variant_code = "Q2S"
assay_value = 1.82

[[record]]
variant_code = "R8G"
assay_value = 1.9

[[record]]
variant_code = "A17W"
assay_value = 1.74

[[record]]
variant_code = "F7L"
assay_value = 1.91

[[record]]
variant_code = "F9M"
assay_value = 2.69

[[record]]
variant_code = "P23D"
assay_value = 2.29

[[record]]
variant_code = "S4M"
assay_value = 1.81

[[record]]
variant_code = "P15V"
assay_value = 2.56

[[record]]
variant_code = "N6S"
assay_value = 1.96

[[record]]
variant_code = "F7W"
assay_value = 2.23

[[record]]
variant_code = "Q2Y"
assay_value = 2.08

[[record]]
variant_code = "P11Q"
assay_value = 1.85

[[record]]
variant_code = "M5K"
assay_value = 2.8

[[record]]
variant_code = "R8K"
assay_value = 2.61

